B1: ZNF263 (parent)
chain: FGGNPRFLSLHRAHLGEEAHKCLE

# Variants of: B1
# ASSAY TEXT: protein stability index of a GFP-peptide fusion (GPS, HEK-293T) (PSI 1-6); higher = more stable;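 note: lentivirally expressed fusions sorted by FACS into six bins by GFP to DsRed ratio, PSI derived from sequencing read proportions per bin multiplied by bin number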
# CONDITION INFO: c terminus: a fixed tail appended
REPORTED METRIC: protein stability index
Give the figure only, with no unit attached.

Before answering, review these 8 worked examples.
[[record]]
sequence_change = "L8P"
reported_metric = "protein stability index"
quantitative_readout = 2.01

[[record]]
sequence_change = "R6T"
reported_metric = "protein stability index"
quantitative_readout = 2.89

[[record]]
sequence_change = "G16T"
reported_metric = "protein stability index"
quantitative_readout = 1.94

[[record]]
sequence_change = "G2E"
reported_metric = "protein stability index"
quantitative_readout = 3.12

[[record]]
sequence_change = "L23G"
reported_metric = "protein stability index"
quantitative_readout = 1.76

[[record]]
sequence_change = "P5F"
reported_metric = "protein stability index"
quantitative_readout = 1.62

[[record]]
sequence_change = "L8W"
reported_metric = "protein stability index"
quantitative_readout = 3.8

[[record]]
sequence_change = "F1V"
reported_metric = "protein stability index"
quantitative_readout = 3.87


# input Could you tell me which protein stability index is on file for `P5H` ?
# output 2.17

# input Could you tell me which protein stability index is on file for `H14S` ?
# output 1.35

# input Could you tell me which protein stability index is on file for `C22T` ?
# output 1.47

# input Could you tell me which protein stability index is on file for `H20R` ?
# output 1.66

# input Could you tell me which protein stability index is on file for `H11F` ?
# output 2.41

# input Could you tell me which protein stability index is on file for `E24L` ?
# output 2.52
